Source of measurements: the supplement of paper PMC11061612

Test system: IMR-5 (Neuroblastoma)
Test: combination Emax (second highest fraction inhibited in the dose matrix, 72 h); higher = more inhibition; extreme values may be limits of the assay
QUANTITY_KIND: combination Emax
Give only the figure.

Cc1cc2ncnn2cc1Nc1ncc2c(n1)n(C1CCOCC1)c(=O)n2C [AZD7648] + O=C(c1cc(Cc2n[nH]c(=O)c3ccccc23)ccc1F)N1CCN(C(=O)C2CC2)CC1 [Olaparib] (first compound max 10 µM, 7x7, partner max 10 µM)
0.475
COc1nnc2ccc(N3CCC(c4ccc(OCCN5CCN(C)C(=O)[C@H]5C)cc4)CC3)nn12 [AZD5153] + CCN(CCO)CCCOc1ccc2c(Nc3cc(CC(=O)Nc4cccc(F)c4)[nH]n3)ncnc2c1 [AZD2811] (first compound max 1 µM, 7x7, partner max 1 µM)
1
CN(CCO)CC[C@H](CSc1ccccc1)Nc1ccc(S(=O)(=O)NC(=O)c2ccc(N3CCC([C@@H](O)c4ccccc4-c4ccc(Cl)cc4)CC3)cc2)cc1S(=O)(=O)C(F)(F)F [AZD4320] + CN(C)CCCOc1ccc(-c2ccc3ncc4c(c3c2)n(C2CCOCC2)c(=O)n4C)cn1 [AZD0156] (first compound max 1 µM, 7x7, partner max 1 µM)
0.608
CCN(CCO)CCCOc1ccc2c(Nc3cc(CC(=O)Nc4cccc(F)c4)[nH]n3)ncnc2c1 [AZD2811] + C[C@@H]1COCCN1C2=NC(=NC(=C2)C3(CC3)[S@](=N)(=O)C)C4=C5C=CNC5=NC=C4 [AZD6738] (first compound max 1 µM, 7x7, partner max 10 µM)
1
CC1(C)CCC(CN2CCN(c3ccc(C(=O)NS(=O)(=O)c4ccc(NCC5CCOCC5)c([N+](=O)[O-])c4)c(Oc4cnc5[nH]ccc5c4)c3)CC2)=C(c2ccc(Cl)cc2)C1 [Venetoclax] + CCN(CCO)CCCOc1ccc2c(Nc3cc(CC(=O)Nc4cccc(F)c4)[nH]n3)ncnc2c1 [AZD2811] (first compound max 1 µM, 7x7, partner max 1 µM)
1
Cn1cnc2c(F)c(Nc3ccc(Br)cc3Cl)c(C(=O)NOCCO)cc21 [Selumetinib] + CCN(CCO)CCCOc1ccc2c(Nc3cc(CC(=O)Nc4cccc(F)c4)[nH]n3)ncnc2c1 [AZD2811] (first compound max 10 µM, 7x7, partner max 1 µM)
1

// below: combination Emax requested for another compound
combination Emax recorded for this compound, CCc1c2c(nc3ccc(O)cc13)-c1cc3c(c(=O)n1C2)COC(=O)[C@]3(O)CC [SN-38] + O=C(c1cc(Cc2n[nH]c(=O)c3ccccc23)ccc1F)N1CCN(C(=O)C2CC2)CC1 [Olaparib] (first compound max 0.3 µM, 7x7, partner max 10 µM) , is 1
